Test: Binding of reporter dye prodan to the lumen of alpha helical barrels (fluorescence titration)
Settings: dissociation constant of prodan (1 μM) with alpha helical barrel 0.5-500 μM, up to 2 hours, fluorescent signal
pKd: −log10 of the molar value.
attribute-measured: pKd

* GELKAIAQELKAIAKELKAIAWELKAIAQG [CC-Hex, forms alpha helical barrel with 6 helices] | < 3.30

Read the next record carefully.
Data request: Provide one value: measured pKd of GKIEQILQKIEKILQKIEWILQKIEQILQG [CC-Pent, forms alpha helical barrel with 5 helices]
Data returned: < 3.30
